# System: maximal electroshock seizures
# Assay: maximal electroshock (MES) test, Phase I, mice ip
# Assay type: in vivo, male Carworth Farms No. 1 (CF1) mice
# Experimental Setup: Mus musculus, 0.5 h, 300 mg/kg, 30 min, read-out: MES 30 min (converted)

Compound: COC(=O)[C@@H]1C(=O)C2=C(C[C@H]1C)Nc1ccccc1S2 (relative stereo) [Compound 4a]
responders at 300 mg/kg: 100%

Compound: C[C@@H]1CC2=C(Sc3ccccc3N2)C(=O)[C@H]1C(=O)OC(C)(C)C (relative stereo) [Compound 4c]
responders at 300 mg/kg: 0%

Compound: C[C@@H]1CC2=C(Sc3cc(Br)ccc3N2)C(=O)[C@H]1C(=O)OC(C)(C)C (relative stereo) [Compound 4l]
responders at 300 mg/kg: 100%

Compound: CCOC(=O)[C@@H]1C(=O)C2=C(C[C@H]1C)Nc1ccc(C)cc1S2 (relative stereo) [Compound 4i]
responders at 300 mg/kg: 100%

Compound: CC1CC(=O)C2=C(C1)Nc1ccccc1S2 (stereo not shown) [Compound 4d]
responders at 300 mg/kg: 0%

Compound: COC(=O)[C@@H]1C(=O)C2=C(C[C@H]1C)Nc1ccc(Cl)cc1S2 (relative stereo) [Compound 4e]
responders at 300 mg/kg: 0%

Compound: COC(=O)[C@@H]1C(=O)C2=C(C[C@H]1C)Nc1ccc(C)cc1S2 (relative stereo) [Compound 4h]
responders at 300 mg/kg: 100%

Compound: C[C@@H]1CC2=C(Sc3cc(Cl)ccc3N2)C(=O)[C@H]1C(=O)OC(C)(C)C (relative stereo) [Compound 4g]
responders at 300 mg/kg: 0%

Compound: CCOC(=O)[C@@H]1C(=O)C2=C(C[C@H]1C)Nc1ccc(Cl)cc1S2 (relative stereo) [Compound 4f]
responders at 300 mg/kg: 100%

Compound: CCOC(=O)[C@@H]1C(=O)C2=C(C[C@H]1C)Nc1ccc(Br)cc1S2 (relative stereo) [Compound 4k]
responders at 300 mg/kg: 100%

---

Here, each record is paired with measured Tox 4 h data.
# Tested on: neurotoxicity (rotorod)
# Assay: rotorod test for neurological toxicity (Tox), Phase I, mice ip
# Format: in vivo, male Carworth Farms No. 1 (CF1) mice
# Experimental Setup: 300 mg/kg, 4 h
Recorded Endpoint: Tox 4 h

Compound: COC(=O)[C@@H]1C(=O)C2=C(C[C@H]1C)Nc1ccc(C)cc1S2 (relative stereo)
Recorded Value: 0/1
--
Compound: C[C@@H]1CC2=C(Sc3cc(Cl)ccc3N2)C(=O)[C@H]1C(=O)OC(C)(C)C (relative stereo)
Recorded Value: 0/2
--
Compound: C[C@@H]1CC2=C(Sc3ccccc3N2)C(=O)[C@H]1C(=O)OC(C)(C)C (relative stereo)
Recorded Value: 0/2
--
Compound: COC(=O)[C@@H]1C(=O)C2=C(C[C@H]1C)Nc1ccccc1S2 (relative stereo)
Recorded Value: 0/2
--
Compound: CC1CC(=O)C2=C(C1)Nc1ccccc1S2 (stereo not shown)
Recorded Value: 0/2
--
Compound: CCOC(=O)[C@@H]1C(=O)C2=C(C[C@H]1C)Nc1ccc(Cl)cc1S2 (relative stereo)
Recorded Value: 0/2
--
Compound: COC(=O)[C@@H]1C(=O)C2=C(C[C@H]1C)Nc1ccc(Cl)cc1S2 (relative stereo)
Recorded Value: 0/2
--
Compound: CCOC(=O)[C@@H]1C(=O)C2=C(C[C@H]1C)Nc1ccc(C)cc1S2 (relative stereo)
Recorded Value: 0/2
--
Compound: CCOC(=O)[C@@H]1C(=O)C2=C(C[C@H]1C)Nc1ccc(Br)cc1S2 (relative stereo)
Recorded Value: 0/4
--
Compound: C[C@@H]1CC2=C(Sc3cc(Br)ccc3N2)C(=O)[C@H]1C(=O)OC(C)(C)C (relative stereo)
Recorded Value: 0/2

---

# Tested on: neurotoxicity (rotorod)
# Assay: rotorod test for neurological toxicity (Tox), Phase I, mice ip
# Format: in vivo, male Carworth Farms No. 1 (CF1) mice
# Experimental Setup: 100 mg/kg, 4 h
Here, each record is paired with measured Tox 4 h data.

Compound: COC(=O)[C@@H]1C(=O)C2=C(C[C@H]1C)Nc1ccc(Br)cc1S2 (relative stereo)
Tox 4 h: 0/2
//
Compound: C[C@@H]1CC2=C(Sc3ccccc3N2)C(=O)[C@H]1C(=O)OC(C)(C)C (relative stereo)
Tox 4 h: 0/4
//
Compound: C[C@@H]1CC2=C(Sc3cc(Cl)ccc3N2)C(=O)[C@H]1C(=O)OC(C)(C)C (relative stereo)
Tox 4 h: 0/4
//
Compound: CCOC(=O)[C@@H]1C(=O)C2=C(C[C@H]1C)Nc1ccc(Br)cc1S2 (relative stereo)
Tox 4 h: 0/2

---

# Assay: rotorod toxicity, oral rat (Phase VIA/VIB)
# Type: in vivo, male Sprague-Dawley rats
# Experimental Setup: rat, in vivo, po
Here, each record is paired with measured TD50 data.
Recorded Endpoint: TD50

Compound: CCOC(=O)[C@@H]1C(=O)C2=C(C[C@H]1C)Nc1ccccc1S2 (relative stereo)
Recorded Endpoint: TD50
Recorded Value: > 500 mg/kg
//
Compound: COC(=O)[C@@H]1C(=O)C=C(Nc2ccc(Cl)cc2)C[C@H]1C (relative stereo) [Compound 1, reference compound]
Recorded Endpoint: TD50
Recorded Value: > 380 mg/kg

---

# System: maximal electroshock seizures
# Assay: maximal electroshock (MES) test, Phase I, mice ip
# Format: in vivo, male Carworth Farms No. 1 (CF1) mice
# Experimental Setup: Mus musculus, 0.5 h, 30 mg/kg, 30 min, read-out: MES 30 min (converted)
Recorded Endpoint: responders at 30 mg/kg (%)

Compound: COC(=O)[C@@H]1C(=O)C2=C(C[C@H]1C)Nc1ccc(Cl)cc1S2 (relative stereo) [Compound 4e]
Recorded Value: 0
//
Compound: CCOC(=O)[C@@H]1C(=O)C2=C(C[C@H]1C)Nc1ccc(C)cc1S2 (relative stereo) [Compound 4i]
Recorded Value: 50
//
Compound: CCOC(=O)[C@@H]1C(=O)C2=C(C[C@H]1C)Nc1ccccc1S2 (relative stereo) [Compound 4b]
Recorded Value: 33.3
//
Compound: CCOC(=O)[C@@H]1C(=O)C2=C(C[C@H]1C)Nc1ccc(Cl)cc1S2 (relative stereo) [Compound 4f]
Recorded Value: 0
//
Compound: C[C@@H]1CC2=C(Sc3cc(Br)ccc3N2)C(=O)[C@H]1C(=O)OC(C)(C)C (relative stereo) [Compound 4l]
Recorded Value: 100

---

# System: neurotoxicity (rotorod)
# Assay: rotorod test for neurological toxicity (Tox), Phase I, mice ip
# Assay type: in vivo, male Carworth Farms No. 1 (CF1) mice
# Experimental Setup: 30 mg/kg, 30 min
Here, each record is paired with measured Tox 30 min data.
Recorded Endpoint: Tox 30 min

Compound: CCOC(=O)[C@@H]1C(=O)C2=C(C[C@H]1C)Nc1ccc(Cl)cc1S2 (relative stereo)
Recorded Endpoint: Tox 30 min
Recorded Value: 0/4
--
Compound: C[C@@H]1CC2=C(Sc3cc(Cl)ccc3N2)C(=O)[C@H]1C(=O)OC(C)(C)C (relative stereo)
Recorded Endpoint: Tox 30 min
Recorded Value: 0/4
--
Compound: COC(=O)[C@@H]1C(=O)C2=C(C[C@H]1C)Nc1ccccc1S2 (relative stereo)
Recorded Endpoint: Tox 30 min
Recorded Value: 0/4
--
Compound: CCOC(=O)[C@@H]1C(=O)C2=C(C[C@H]1C)Nc1ccccc1S2 (relative stereo)
Recorded Endpoint: Tox 30 min
Recorded Value: 0/8

---

# System: neurotoxicity (rotorod)
# Assay: rotorod test for neurological toxicity (Tox), Phase I, mice ip
# Format: in vivo, male Carworth Farms No. 1 (CF1) mice
# Experimental Setup: 300 mg/kg, 30 min
# Procedure: Initial evaluations for anticonvulsant activity include phases I, VIA and VIB test procedures. These tests are performed intraperitoneally in male Carworth Farms No. 1 (CF1) mice, weighing 18-25 g (Phase I) or orally in male Sprague-Dawley rats, weighing 100-150 g (Phases VIA and VIB). […] Abolition of the hind limb tonic extension component of the seizure is defined as protection and results are expressed as the number of animals protected/the number of animals tested. […]

Molecule: CC1CC(=O)C2=C(C1)Nc1ccccc1S2 (stereo not shown)
Tox 30 min: 0/4

Molecule: COC(=O)[C@@H]1C(=O)C2=C(C[C@H]1C)Nc1ccccc1S2 (relative stereo)
Tox 30 min: 1/4

Molecule: C[C@@H]1CC2=C(Sc3cc(Cl)ccc3N2)C(=O)[C@H]1C(=O)OC(C)(C)C (relative stereo)
Tox 30 min: 0/4

Molecule: COC(=O)[C@@H]1C(=O)C2=C(C[C@H]1C)Nc1ccc(C)cc1S2 (relative stereo)
Tox 30 min: 0/3

Molecule: COC(=O)[C@@H]1C(=O)C2=C(C[C@H]1C)Nc1ccc(Cl)cc1S2 (relative stereo)
Tox 30 min: 0/4

Molecule: CCOC(=O)[C@@H]1C(=O)C2=C(C[C@H]1C)Nc1ccc(C)cc1S2 (relative stereo)
Tox 30 min: 0/4

Molecule: CCOC(=O)[C@@H]1C(=O)C2=C(C[C@H]1C)Nc1ccc(Br)cc1S2 (relative stereo)
Tox 30 min: 0/8

Molecule: C[C@@H]1CC2=C(Sc3ccccc3N2)C(=O)[C@H]1C(=O)OC(C)(C)C (relative stereo)
Tox 30 min: 0/4

Molecule: CCOC(=O)[C@@H]1C(=O)C2=C(C[C@H]1C)Nc1ccc(Cl)cc1S2 (relative stereo)
Tox 30 min: 0/4

Molecule: C[C@@H]1CC2=C(Sc3cc(Br)ccc3N2)C(=O)[C@H]1C(=O)OC(C)(C)C (relative stereo)
Tox 30 min: 0/4

// provenance: patent US5994349A
